system: skin; test: Evaluation of emollients: test lotion rated by a panel; format: in vivo, persons; conditions: 0-10 scale; five characteristics (ease of application, moistness, smoothness, greasiness, tackiness) each rated 0-2; mean of 10 subjects; 7.0 parts emollient in lotion aged 48 hours, rubbed into inner arm
Reported Emollient Rating values for a set of compounds

{"compound": "OCC(O)CO", "Emollient Rating": 5.8}
{"compound": "OCC(CO)(CO)CO", "Emollient Rating": 6.3}
{"compound": "OCCCO", "Emollient Rating": 6.3}
{"compound": "CC(O)CO (stereo not shown)", "Emollient Rating": 8.1}

meta.source: patent EP0012543A1
